B1: CPXM2 (parent)
chain: TASTKNCMVGYDMGATRCDFTLSK

Variants of: B1
assay.method.text: protein stability index of a GFP-peptide fusion (GPS, HEK-293T) (PSI 1-6); higher = more stable;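 further: lentivirally expressed fusions sorted by FACS into six bins by GFP to DsRed ratio, PSI derived from sequencing read proportions per bin multiplied by bin number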
condition.notes: c terminus: a fixed tail appended
Lab note: anything with protein stability index at or over 2 counts as class 1; the rest go in class 0.

variant.identifier | classification
S3C | class 1
G10T | class 0
T16Y | class 1
M8A | class 0
T21V | class 1
T16N | class 1
F20R | class 1
V9C | class 1
A2N | class 1
G14Y | class 0
